The entries below come with measured IC50 values attached.
# Target Under Test: human sodium channels Nav 1.8 (Homo sapiens, UniProt Q9Y5Y9)
# Sequence (Q9Y5Y9 whole entry): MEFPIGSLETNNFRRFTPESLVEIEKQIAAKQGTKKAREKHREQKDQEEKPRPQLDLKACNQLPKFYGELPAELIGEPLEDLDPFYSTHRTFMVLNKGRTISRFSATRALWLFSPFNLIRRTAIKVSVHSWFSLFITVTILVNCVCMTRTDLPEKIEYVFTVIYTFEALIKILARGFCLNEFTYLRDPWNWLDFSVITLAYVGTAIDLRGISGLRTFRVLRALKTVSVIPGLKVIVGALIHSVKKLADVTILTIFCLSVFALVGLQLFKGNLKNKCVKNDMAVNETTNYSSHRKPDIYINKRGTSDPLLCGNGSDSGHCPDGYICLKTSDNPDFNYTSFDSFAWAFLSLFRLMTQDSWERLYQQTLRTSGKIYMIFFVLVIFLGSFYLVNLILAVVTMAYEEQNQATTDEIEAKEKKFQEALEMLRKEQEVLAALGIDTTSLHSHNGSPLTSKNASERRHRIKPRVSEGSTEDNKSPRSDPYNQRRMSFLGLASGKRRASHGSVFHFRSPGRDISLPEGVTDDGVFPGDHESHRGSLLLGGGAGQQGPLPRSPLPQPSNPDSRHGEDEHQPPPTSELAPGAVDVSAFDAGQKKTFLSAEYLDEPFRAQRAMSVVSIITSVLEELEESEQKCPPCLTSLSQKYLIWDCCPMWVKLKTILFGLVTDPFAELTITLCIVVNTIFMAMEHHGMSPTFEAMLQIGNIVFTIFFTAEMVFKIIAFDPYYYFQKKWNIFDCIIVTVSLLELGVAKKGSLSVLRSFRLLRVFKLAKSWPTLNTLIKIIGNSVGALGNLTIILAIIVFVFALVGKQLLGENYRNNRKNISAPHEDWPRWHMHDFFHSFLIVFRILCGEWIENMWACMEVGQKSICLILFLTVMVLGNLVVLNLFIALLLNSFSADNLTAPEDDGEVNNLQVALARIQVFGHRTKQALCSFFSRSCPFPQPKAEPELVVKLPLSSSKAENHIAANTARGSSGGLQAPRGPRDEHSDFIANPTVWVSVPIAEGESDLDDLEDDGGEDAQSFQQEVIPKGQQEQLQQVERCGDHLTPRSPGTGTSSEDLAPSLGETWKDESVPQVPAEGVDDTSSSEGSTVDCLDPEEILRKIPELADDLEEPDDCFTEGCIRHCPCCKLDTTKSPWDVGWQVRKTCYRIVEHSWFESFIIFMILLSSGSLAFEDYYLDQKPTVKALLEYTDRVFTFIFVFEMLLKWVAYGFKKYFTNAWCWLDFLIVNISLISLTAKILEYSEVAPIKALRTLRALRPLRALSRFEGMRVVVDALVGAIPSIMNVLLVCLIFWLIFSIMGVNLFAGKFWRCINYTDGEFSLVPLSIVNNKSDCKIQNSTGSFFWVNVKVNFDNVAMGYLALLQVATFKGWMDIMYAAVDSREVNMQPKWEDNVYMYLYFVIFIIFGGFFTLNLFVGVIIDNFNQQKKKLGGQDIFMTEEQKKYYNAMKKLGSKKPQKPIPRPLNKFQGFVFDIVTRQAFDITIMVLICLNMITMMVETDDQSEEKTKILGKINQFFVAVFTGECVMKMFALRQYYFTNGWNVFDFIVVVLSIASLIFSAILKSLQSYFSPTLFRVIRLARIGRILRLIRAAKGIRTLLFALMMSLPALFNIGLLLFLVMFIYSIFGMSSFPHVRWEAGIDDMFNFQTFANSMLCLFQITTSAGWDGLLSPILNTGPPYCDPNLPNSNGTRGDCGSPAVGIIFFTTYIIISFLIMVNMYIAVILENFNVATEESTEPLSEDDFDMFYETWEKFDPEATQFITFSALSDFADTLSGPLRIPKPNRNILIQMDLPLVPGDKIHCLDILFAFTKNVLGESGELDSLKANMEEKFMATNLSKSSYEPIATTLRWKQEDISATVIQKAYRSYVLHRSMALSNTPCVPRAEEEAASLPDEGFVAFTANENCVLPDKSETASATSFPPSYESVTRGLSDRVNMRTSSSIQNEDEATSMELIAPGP
# Measurement Notes: Automated whole-cell voltage-clamp (ScreenPatch 384P) sodium current block in CHO cells expressing Nav 1.8
# Condition Parameters: CHO cells stably expressing human Nav 1.8; whole cell patch clamp, inactivation step -40 mV 8 s, test step 10 mV (TP1A), room temperature; mean where tested in two or more assays; read-out: Nav1.8 IC50

INSERT INTO measurements (entry_smiles, metric, measured_result) VALUES
  ('CCOc1cc(C)c(-c2cncc(C(=O)NNCc3cc(OC)cc(OC)c3)n2)cn1', 'IC50', '> 1 µM'),
  ('O=C(NNCc1ccc(Cl)cc1)c1cncc(-c2ccc(Cl)cc2)n1', 'IC50', '> 1 µM'),
  ('CCOc1ccc(-c2cncc(C(=O)NNCc3cccc(OC)c3)n2)cn1', 'IC50', '< 0.5 µM'),
  ('CCOc1ccc(-c2cncc(C(=O)NNCc3ccc(Cl)cc3)n2)cc1', 'IC50', '> 1 µM');

Q. Complete the entry with IC50 for CCOc1ccc(-c2cncc(C(=O)NNCc3cc(OC)ccc3C)n2)cc1
A. < 0.5 µM

----------
# Target Under Test: human sodium channels Nav 1.8 (Homo sapiens, UniProt Q9Y5Y9)
# Measurement Notes: Automated whole-cell voltage-clamp (ScreenPatch 384P) sodium current block in CHO cells expressing Nav 1.8
# Condition Parameters: CHO cells stably expressing human Nav 1.8; whole cell patch clamp, inactivation step -40 mV 8 s, test step 10 mV (TP1A), room temperature; mean where tested in two or more assays; read-out: Nav1.8 IC50
Metric: IC50

INSERT INTO assay_data (entry_smiles, metric, measured_result) VALUES
  ('O=C(NN1CCc2cc(Cl)ccc2C1)c1cncc(-c2ccc(Cl)cc2)n1', 'IC50', '> 1 µM'),
  ('CCOc1ccc(-c2cncc(C(=O)NNCc3cc(OC)cc(OC)c3)n2)c(F)c1', 'IC50', '< 0.5 µM'),
  ('CCOc1ccc(-c2cncc(C(=O)NNCc3cc(OC)cc(OC)c3)n2)c(C)c1', 'IC50', '< 0.5 µM'),
  ('CCOc1ccc(-c2cncc(C(=O)NN3Cc4ccc(OC)cc4C3)n2)cc1', 'IC50', '< 0.5 µM'),
  ('CCOc1ccc(-c2cncc(C(=O)NNCc3ccccc3F)n2)cc1', 'IC50', '< 0.5 µM');

Q. Name the recorded IC50 of the molecule listed here: CCOc1ccc(-c2cncc(C(=O)NNCc3cccc(OC)c3)n2)cc1
A. < 0.5 µM

Q. Look up and report measured IC50 for this entry: CCOc1ccc(-c2cncc(C(=O)NNCc3cc(OC)ccc3F)n2)cn1
A. < 0.5 µM

Q. Consider the molecule CCOc1ccc(-c2cncc(C(=O)NNCc3cc(OC)cnc3C)n2)cn1 . State its measured IC50.
A. < 0.5 µM

Q. Look up and state reported IC50 for CCOc1ccc(-c2cncc(C(=O)NNCc3cc(OC)cnc3F)n2)cc1
A. 0.5 to 1 µM

Q. Using the record for CCOc1ccc(-c2cncc(C(=O)NN3CCOc4ccc(OC)cc4C3)n2)cc1 , state its measured IC50.
A. > 1 µM

Q. Answer with the recorded IC50 of CCOc1ccc(-c2cncc(C(=O)NNCc3ccccc3F)c2)cc1 only.
A. < 0.5 µM

Q. Recall and state the measured IC50 for CCOc1ccc(-c2cccc(C(=O)NNCc3ccccc3F)n2)cc1 .
A. > 1 µM

Q. For the molecule CCOc1ccc(-c2cncc(C(=O)NNCc3cc(OC)cnc3C)n2)cc1 , report IC50.
A. < 0.5 µM

Q. Query IC50 for COc1cc(CNNC(=O)c2cncc(-c3ccc(OC4CC4)nc3)n2)cc(OC)c1
A. 0.5 to 1 µM

Q. Identify the reported IC50 for the following entry. COc1ccc(-c2cncc(C(=O)NNCc3ccc(Cl)cc3)n2)cc1
A. > 1 µM

Q. Using the record for CCOc1ccc(-c2cncc(C(=O)NNCc3cc(OC)cc(OC)c3)n2)cn1 , state its measured IC50.
A. 0.5 to 1 µM

Q. Tell me IC50 reported for COc1cc(CNNC(=O)c2cncc(-c3ccc(OC(F)F)nc3)n2)cc(OC)c1
A. < 0.5 µM

Q. Provide only the value of recorded IC50 for CCOc1ccc(-c2cncc(C(=O)NNCc3cc(OC)cc(OC)c3)n2)cc1
A. < 0.5 µM

Data credit: patent US20260226020A1
